Origin of values: PubChem BioAssay (NCI)

- System: HCT-116 colon
- Method notes: NCI-60 one-dose screen, 48 h (100 = growth as untreated, 0 = no growth, -100 = all killed)
- Experimental parameters: 10 µM unless noted
About 83,000 compounds went through this panel and 20% of them were active in at least one assay; those are over-represented in the sample as a whole. Calls of active or inactive are those of the source. The calls were made as follows: active = growth percent below 10; inactive = the rest.
Property: growth

Guide cases for growth, answers given:
# Molecule, growth
records = [
    ("COc1cc(C(=O)Nc2cc3c(cc2Oc2cc(C)cc(C)c2)C(=O)N(C)[C@@H](CC(=O)N(C)O)C(=O)N3)c(Br)c(OC)c1OC", "-35.5% (active)"),
    ("NC(=NCc1ccccc1)C(N=Nc1ccccc1)C(=O)NCc1ccccc1 (stereo not given)", "15.8% (inactive)"),
]

Measured growth of Cn1ccc2c1CC1CN(Cc3ccco3)C(=O)C1C2C(=O)O (stereo not given) : 104% (inactive)

Measured growth of CCC(CC)NCC(C)(C)O : 103% (inactive)

Measured growth of COc1ccc(/C=C2\Oc3cc(OCCCN4CCCCC4)ccc3C2=O)cc1OC : 76% (inactive)

Measured growth of N/C(=N\C(N)=N\c1nc2ccccc2s1)c1ccnc(Br)c1 : 20.2% (inactive)
